Test system: KM12 colon
Assay: NCI-60 one-dose screen, 48 h (100 = growth as untreated, 0 = no growth, -100 = all killed)
Conditions: 10 µM unless noted
This is part of a sample that, as a whole, favours compounds with a hit. Of some 83,000 tested, about 20% had one in any assay.
Measured growth accompanies every entry in the list below.
Number in %, nothing else.

[
  {
    "Compound": "NS(=O)(=O)c1cccc(Nc2nc(SCC(=O)c3ccc(F)cc3)nc3ccccc23)c1",
    "Measured target": "KM12 colon",
    "growth, %": -1.98
  },
  {
    "Compound": "COc1cc(/C=N/NC(=O)c2ccc(OCc3nc4ccc(Cl)cc4[nH]3)cc2)cc(OC)c1OC",
    "Measured target": "KM12 colon",
    "growth, %": 43.3
  },
  {
    "Compound": "Cc1cc(=O)oc2cc(OCC(O)CNN3C(=O)c4cccc5c(N6CCN(C)CC6)ccc(c45)C3=O)ccc12 (stereo unspecified)",
    "Measured target": "KM12 colon",
    "growth, %": 90.8
  },
  {
    "Compound": "C[C@@H](Nc1c(C#N)cnc2ccc(-c3cnc4[nH]ncc4c3)cc12)c1ccccc1",
    "Measured target": "KM12 colon",
    "growth, %": 30
  },
  {
    "Compound": "Cc1cccc(NCC(=O)N2CCN(c3ncnc4c3cnn4-c3ccccc3)CC2)c1",
    "Measured target": "KM12 colon",
    "growth, %": 40.6
  },
  {
    "Compound": "CC[C@]12C=CCN3CC[C@@]4(c5ccc(OC)cc5N(C)[C@H]4[C@@](O)(C(=O)OC)[C@@H]1OC(=O)CCC[P+](c1ccc(OC)cc1)(c1ccc(OC)cc1)c1ccc(OC)cc1)[C@@H]32",
    "Measured target": "KM12 colon",
    "growth, %": -65.3
  },
  {
    "Compound": "N#Cc1ccc(C(=O)CSc2nc3c(c(Nc4ccc(S(N)(=O)=O)cc4)n2)CCC3)cc1",
    "Measured target": "KM12 colon",
    "growth, %": 64.2
  },
  {
    "Compound": "C[C@H](NC(=O)c1ccc2c(-c3ccc(C(F)(F)F)cc3)cccc2c1)c1ccccn1",
    "Measured target": "KM12 colon",
    "growth, %": 47.5
  },
  {
    "Compound": "Cc1ccc(O)cc1Nc1nc(SCCN2CCOCC2)nc2c1cnn2CC(Cl)c1ccc(Br)cc1 (stereo unspecified)",
    "Measured target": "KM12 colon",
    "growth, %": 17
  },
  {
    "Compound": "O=C(CSc1nnc(-c2ccc(-c3nc4ccccc4[nH]3)cc2)o1)Nc1ccc(Br)cc1",
    "Measured target": "KM12 colon",
    "growth, %": 21.7
  }
]

**Q:** Need growth of COc1ccc(-c2cc(C(=O)Oc3ccc(C=O)cc3OC)nn2-c2ccc(S(C)(=O)=O)cc2)cc1 , thanks.
**A:** 103

**Q:** Need growth of Cn1ncc2c(N)nc(Oc3ccccc3-c3ccccc3)nc21 , thanks.
**A:** 24

**Q:** Need growth of Fc1cccc(CNc2nc(SCCN3CCOCC3)nc3c2cnn3CC(Cl)c2ccc(Br)cc2)c1 (stereo unspecified) , thanks.
**A:** 8.48

**Q:** Need growth of COc1ccc(N=Nc2c(N)nn3c(-c4cc5ccccc5oc4=O)ccnc23)cc1 , thanks.
**A:** 51.1

**Q:** Need growth of Cc1ccc(S(=O)(=O)Nc2ccc(-c3ccc4c(c3)NC(=O)/C4=C\c3ccc[nH]3)cc2)cc1 , thanks.
**A:** 67.1

**Q:** Need growth of CCc1ccc(SC2c3cc(OC)ccc3Oc3nc(N)c(C#N)c(N)c32)cc1 (stereo unspecified) , thanks.
**A:** -17.7

**Q:** Need growth of CC(Nc1ncnc2ccc(-c3ccc4oc(N)nc4c3)cc12)c1ccccc1 (stereo unspecified) , thanks.
**A:** 23.6

**Q:** Need growth of Cc1nc2sccn2c1-c1nnc(SCC(C)C)o1 , thanks.
**A:** 98.1

**Q:** Need growth of Cc1ccc(Cl)cc1NC(=O)Nc1nc2ccc([N+](=O)[O-])cc2s1 , thanks.
**A:** -2.73

**Q:** Need growth of CC[C@]12C=CCN3CC[C@]4(C(=C(C(=O)OC)C1)Nc1cc(OC)c([C@@H]5[C@H]6O[C@H]6[C@@]6(CC)CC(C(=O)OC)=C7Nc8cc(OC)ccc8[C@@]78CCN5[C@@H]68)cc14)[C@@H]32 , thanks.
**A:** 49.6

**Q:** Need growth of N#Cc1cc(-c2ccnc(Nc3ccc(N4CCN(C5COC5)CC4)cc3)n2)ccc1N1CCCC1 , thanks.
**A:** 83.2

**Q:** Need growth of COc1ccc(-n2c(NC(=O)N3CCN(C)CC3)c(C#N)c3ccccc32)cc1 , thanks.
**A:** 34.1

**Q:** Need growth of Cc1cccc(-c2ccccc2Oc2ccc3nnc(Cl)n3n2)c1 , thanks.
**A:** 106

**Q:** Need growth of Cc1cc(Cl)ccc1NC(=O)Nc1ccc(-c2ccc3c(c2)NC(=O)/C3=C\c2ccc[nH]2)cc1 , thanks.
**A:** 25.8

**Q:** Need growth of O=c1[nH]c2ccccc2cc1COc1ccc(Nc2nccc(-c3ccc(Cl)cc3)n2)cc1 , thanks.
**A:** 99.3

**Q:** Need growth of COc1ccc2[nH]cc(-c3cc(N)n4nc(-c5c[nH]c6ccccc56)cc4n3)c2c1 , thanks.
**A:** -48.8

----------
Test system: MALME-3M melanoma
Experiment: NCI-60 one-dose screen, 48 h (100 = growth as untreated, 0 = no growth, -100 = all killed)
Conditions: 10 µM unless noted
The panel holds about 83,000 compounds, 20% with a hit somewhere; the sample as a whole holds those more often.
Readout label: growth (%)
Number in %, nothing else.

**Q:** Lab note: need growth with MALME-3M melanoma for entry COc1cc(CNC(=O)C[C@H](C)CCC=C(C)C)ccc1OCc1cn(-c2ccccc2F)nn1 , please look it up.
**A:** 78.3

**Q:** Lab note: need growth with MALME-3M melanoma for entry Cc1ccccc1NC(=O)c1cccc(NC(=O)CCl)c1 , please look it up.
**A:** 79.6

**Q:** Lab note: need growth with MALME-3M melanoma for entry COc1ccc(NC2=C(I)C(=O)C(C)=C(C)C2=O)cc1 , please look it up.
**A:** 77.7

----------
Test system: PC-3 prostate
Assay: NCI-60 one-dose screen, 48 h
Conditions: 10 µM unless noted
About 83,000 compounds went through this panel and 20% of them were active in at least one assay; those are over-represented in the sample as a whole. Calls of active or inactive are those of the source. Rule for the calls: active = growth percent below 10; inactive = the rest.
Answer with one of the outcomes active, inactive

Please review the entries below; each comes with its answer.
[
  {
    "Compound": "NS(=O)(=O)c1ccc(Nc2nc(SCC(=O)c3ccc(F)cc3)nc3ccccc23)cc1",
    "Category": "inactive"
  },
  {
    "Compound": "COc1sc(/C=N/NC(=O)c2[nH]c3ccc(Br)cc3c2-c2ccccc2)cc1Cl",
    "Category": "active"
  },
  {
    "Compound": "CCC1(OC(=O)c2ccccc2SSCCOC(=O)CCCCC2SCC3NC(=O)NC32)C(=O)OCc2c1cc1n(c2=O)Cc2cc3ccccc3nc2-1 (centres undefined)",
    "Category": "inactive"
  }
]

Now let's try a different one.
**Q:** Which result was noted for this compound in the test: COc1ccc(CCC2NCCc3c(Br)c4c(c(OC)c32)OCO4)cc1 (centres undefined)
**A:** inactive

----------
Test system: A498 renal
Experiment: NCI-60 one-dose screen, 48 h (100 = growth as untreated, 0 = no growth, -100 = all killed)
Settings: 10 µM unless noted
Compounds without any hit were thinned out: in the full panel of roughly 83,000, 20% have a hit.
Measured growth accompanies every entry in the list below.
Number in %, nothing else.

Solved cases (2 shown):
[
  {
    "Molecule": "COc1cc(/C=C/C(=O)c2ccc(S(=O)(=O)NCCNc3nc(N(C)C)nc(N4CCOCC4)n3)cc2)cc(OC)c1OC",
    "growth [%]": 51.9
  },
  {
    "Molecule": "C/C(=N/O)c1ccc(NC(=O)CSc2nnc(-c3ccc4nc(-c5ccc(Cl)cc5)[nH]c4c3)o2)cc1",
    "growth [%]": 158
  }
]

**Q:** Need growth of CN1CCN(C(=O)CCN(C(=O)Oc2cc3c(c4ccccc24)[C@H](CCl)CN3C(=O)c2cc3cc(OCCCN4CCC4)ccc3[nH]2)[C@H]2CCSSC2)CC1 , thanks.
**A:** -40.9

**Q:** Need growth of N#CC1=C(c2cccs2)Nc2c(c(-c3ccccc3)nn2-c2ccccc2)C12C(=O)Nc1ccc(Cl)cc12 (configuration not stated) , thanks.
**A:** 88.8

**Q:** Need growth of COc1cc(C2CC(c3cc(OC)c(OC)c(OC)c3)=Nc3c(N)nc(N)nc3N2)ccc1Oc1nc(Nc2ccc(F)cc2)nc(N(C)C)n1 (configuration not stated) , thanks.
**A:** 118

**Q:** Need growth of Cc1cc(C2(c3cc(C)c(OCC(O)CNc4c(C)n(C)n(-c5ccccc5)c4=O)cc3C(C)C)OC(=O)c3ccccc32)c(C(C)C)cc1OCC(O)CNc1c(C)n(C)n(-c2ccccc2)c1=O (configuration not stated) , thanks.
**A:** 55.4

**Q:** Need growth of CCOc1ccccc1[C@H]1C(C(=O)c2ccc(Cl)cc2)C2(N[C@@H]1c1ccccc1)C(=O)Nc1ccccc12 (some centres not stated) , thanks.
**A:** -2.33
